Assay: in vivo
Settings: male, Sprague-Dawley, rat, plasma, other: intraduodenal (i.d.), 40 mg CTX eq/kg
MEASURED QUANTITY: Tmax
Reply with the number, then its unit.

Recorded result, "CO/N=C(\C(=O)N[C@@H]1C(=O)N2C(C(=O)O)=C(CSc3nc(=O)c(O)nn3C)CS[C@H]12)c1csc(N)n1" , Tmax: 1 h

====

Assay: in vivo
Settings: male, Sprague-Dawley, rat, plasma, other: intraduodenal (i.d.), 40 mg CTX eq./kg
MEASURED QUANTITY: concentration at 180 min (ng/mL)
State the answer as a number, implicitly in ng/mL.

Note to self: concentration at 180 min recorded for "CO/N=C(\C(=O)N[C@@H]1C(=O)N2C(C(=O)O)=C(CSc3nc(=O)c(O)nn3C)CS[C@H]12)c1csc(N)n1" was 6000

====

Assay: in vivo
Conditions: male, Sprague-Dawley, rat, plasma, other: intraduodenal (i.d.), 40 mg CTX eq./kg
MEASURED QUANTITY: concentration at 30 min (ng/mL)
Quick note: give the figure in ng/mL, leave out the unit.

get_value(item= "CO/N=C(\C(=O)N[C@@H]1C(=O)N2C(C(=O)O)=C(CSc3nc(=O)c(O)nn3C)CS[C@H]12)c1csc(N)n1" , readout=concentration at 30 min) returns 10000

====

Assay: in vivo
Settings: male, Sprague-Dawley, rat, plasma, other: intraduodenal (i.d.), 40 mg CTX eq./kg
MEASURED QUANTITY: concentration at 90 min (ng/mL)
Report as a plain number; the unit ng/mL is understood.

// sample CO/N=C(\C(=O)N[C@@H]1C(=O)N2C(C(=O)O)=C(CSc3nc(=O)c(O)nn3C)CS[C@H]12)c1csc(N)n1 [CTX, ceftriaxone] , its concentration at 90 min was 9000

====

Assay: in vivo
Conditions: male, Sprague-Dawley, rat, plasma, other: intraduodenal (i.d.), 40 mg CTX eq./kg
MEASURED QUANTITY: concentration at 60 min (ng/mL)
Give just the numeric value; ng/mL need not be written.

Reported concentration at 60 min ( CO/N=C(\C(=O)N[C@@H]1C(=O)N2C(C(=O)O)=C(CSc3nc(=O)c(O)nn3C)CS[C@H]12)c1csc(N)n1 [CTX, ceftriaxone] ) = 11000
